Assay: gradient 5% acetonitrile 3 min, to 50% in 2 min, to 85% in 15 min, held 3 min, 100 µL/min
Conditions: column: Zorbax Extend-C18 2.1 x 50 mm; eluents: water / acetonitrile, 0.1% formic acid
VALUE KIND: RP-LC retention time
Put your answer as a value accompanied by its unit after it.

Suppose we examine the molecule CCn1cc(-c2nc(CC(=O)Nc3cc(C)ccc3F)cs2)c2cccnc21 ; what RP-LC retention time value has been reported?
1040 s

Continue with O=C(NCc1ccccc1Br)c1cn2ccccc2n1
736 s

Continue with CN1Cc2ccccc2-n2ccnc2C12CCN(C(=O)c1cccc(F)c1)CC2
614 s

Continue with CCN(CC)S(=O)(=O)c1cc(-c2nc(C(C)(C)C)cs2)cs1
1350 s

====

Assay: gradient 5% acetonitrile 3 min, to 50% in 2 min, to 85% in 15 min, held 3 min, 100 µL/min
Details: column: Zorbax Extend-C18 2.1 x 50 mm; eluents: water / acetonitrile, 0.1% formic acid
VALUE KIND: RP-LC retention time (s)
Report the figure in s without appending any unit label.

Suppose we examine the compound O=C(NCc1ccco1)c1nc2ccccn2c1-c1ccccc1 ; what RP-LC retention time value has been reported?
783

Continue with CCN1CCCn2cc(S(=O)(=O)NCc3ccccc3Cl)cc2C1=O
750

Continue with Cc1cc(C)c2[nH]c3c(c(=O)c2c1)CN(CC(=O)NCc1ccc(F)cc1)CC3
620

====

Record form. Attribute: RP-LC retention time. Fill in for each entry.
Test: gradient 5% acetonitrile 3 min, to 50% in 2 min, to 85% in 15 min, held 3 min, 100 µL/min
Settings: column: Zorbax Extend-C18 2.1 x 50 mm; eluents: water / acetonitrile, 0.1% formic acid
Report the figure in s without appending any unit label.

Suppose we examine the molecule CCOC(=O)c1noc2nc(C)nc(N(C)Cc3ccccc3)c12 ; what RP-LC retention time value has been reported?
1060

Continue with Cc1ccc(C)c(N2CCN(c3ccnc(SCC(=O)Nc4ccc5c(c4)OCO5)n3)CC2)c1
858

Continue with CN(C)c1nccnc1OC1CCN(C(=O)c2ccnn2C)C1 (stereo unspecified)
634

Continue with CC(C)NC(=O)C1CC(=O)N(c2ccc3c(c2)CCN3C(=O)C2CC2)C1 (stereo unspecified)
657

Continue with CCS(=O)(=O)Nc1ccc(-c2noc(C(C)NC(=O)c3ccccc3)n2)cc1 (stereo unspecified)
777

Continue with COc1cc(CN2CCC3(CC2)CC(C)(O)CCO3)cc(OC)c1 (stereo unspecified)
561

====

Record form. Attribute: RP-LC retention time. Fill in for each entry.
Experiment: gradient 5% acetonitrile 3 min, to 50% in 2 min, to 85% in 15 min, held 3 min, 100 µL/min
Conditions: column: Zorbax Extend-C18 2.1 x 50 mm; eluents: water / acetonitrile, 0.1% formic acid

Suppose we examine the compound COCCn1cc(CCNC(=O)Nc2cc(C)cc(C)c2)c2cccnc21 ; what RP-LC retention time value has been reported?
776 s

Continue with O=C(NCc1ccc2c(c1)OCO2)c1ccc2ccnc(N3CCN(C(=O)c4ccco4)CC3)c2c1
679 s

Continue with O=c1c2cnc(N3CCOCC3)nc2ccn1CCc1c[nH]c2ccccc12
801 s

Continue with Cc1ccccc1CNC(=O)c1cn(C)nc1S(=O)(=O)N1CCSCC1
887 s

Continue with Cn1c(CNC(=O)CSc2nnc3c4ccccc4nc(-c4ccco4)n23)nc2ccccc21
632 s

Continue with CCN1CCN(CCCNC(=O)CN2CCSc3ccccc32)CC1
580 s

Continue with O=C(NCc1cccs1)NCC1CN(c2cccc(Cl)c2)C(=O)O1 (stereo not drawn)
731 s

Continue with Cc1occc1-c1nnc2sc(COc3ccccc3Cl)nn12
994 s

Continue with Cc1ccc(NC(=O)N2CCC(N3CCN(Cc4ccccc4)C3=O)CC2)cc1F
872 s

Continue with CCc1ccc(NC(=O)c2sc(-c3cccn3CC)nc2C)cc1
1260 s

Continue with COc1ccc(-c2ncc3c(n2)CCN(S(=O)(=O)c2ccc(F)c(Cl)c2)C3)cc1
1130 s

Continue with OCCNCc1ccc(-c2cc(Cl)ccc2Cl)o1
657 s

Continue with CCC(C)CN(CC(=O)N1CCc2sccc2C1COc1ccc(F)cc1)C(=O)COC (stereo not drawn)
962 s

Continue with Cc1cc(C)n(CCNC(=O)C(=O)Nc2ccc(Cl)cn2)n1
692 s

Continue with CC(C)Cc1ccc(S(=O)(=O)NC2CCCN(c3ccc(=O)n(CC4CC4)n3)C2)cc1 (stereo not drawn)
1050 s

Continue with Cc1cc(N2CCN(C(=O)Cc3ccccc3Br)CC2)nc2nnc(C)n12
623 s

Continue with Cc1cc(C)n(CC(=O)N2CCN(c3ccccc3F)CC2)c1-c1nc(C2CC2)no1
971 s

Continue with CCOC(=O)N1CCN(S(=O)(=O)c2ccc(OCC)cc2OCC)CC1
858 s

Continue with CS(=O)(=O)N1CCOc2ccc(CCC(=O)NCC3CCCO3)cc2C1 (stereo not drawn)
666 s

Continue with O=S(=O)(Cc1ccccc1)N1CCC(c2noc(-c3ccncc3)n2)C1 (stereo not drawn)
812 s

Continue with NC(=O)C1CCN(C2CC(=O)N(c3ccccc3Sc3ccccc3)C2=O)CC1 (stereo not drawn)
650 s

Continue with CN(CCc1noc(-c2ccc(F)cc2)n1)C(=O)Nc1ccc(F)cc1F
874 s

Continue with COC(=O)[C@H](CCCN=C(N)N)NS(=O)(=O)c1ccc(C)cc1
667 s

Cited source: the METLIN SMRT retention time set (Domingo-Almenara et al. 2019)
